# test: adipocyte viability effects, profiling panel, cell-based, 3T3-L1 adipocytes, calcein-AM fluorescence, 48 h, basal (AID 1163); further: test concentration not given here
# test-parameters: 3T3-L1 adipocytes viability, higher = more signal
Attribute: z-score
Give the figure by itself; no unit, no explanation.

O=C1NC(=O)C2C1C=CC(C(O)C(c1ccccc1)c1ccccc1)N2Nc1ccc(Cl)cc1Cl (centres undefined) = 0.205
COc1ccc([Si](C)(C)[C@H]2[C@H](CC(=O)N3Cc4ccccc4C[C@H]3CO)O[C@@]3(C(=O)N(Cc4ccc(N5CCC5=O)cc4)c4ccccc43)[C@@H]2C)cc1 = 0.656

Which z-score value belongs to `C[N+](C)(C)CCCC[C@@H]1NC(=O)[C@@H]2C[C@H](C(=O)NCCCCCN)[C@H](c3cccc(OCCO)c3)N2C1=O` ?
0.698

Could you share which z-score value was measured for CC(C)c1ccc(NN2C(C(O)C(c3ccccc3)c3ccccc3)C=CC3C(=O)N(c4ccccc4)C(=O)C32)cc1 (centres undefined) ?
-0.306

###

# test: E. coli acrAB mutant growth effects, primary screen, E. coli filamentation inducers, strain DRC39, OD650, 48 h (AID 1179);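 further: screen aims at cell division blockers that make cells filament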
# test-parameters: E. coli DRC39 delta-acrAB growth, higher = more signal, called active from +8 up or from −8 down
The source made the active and inactive calls.
quantity-name: z-score

Example cases with answers are listed next.
O=C1NC(=O)C2C1C=CC(C(O)C(c1ccccc1)c1ccccc1)N2Nc1ccc(Cl)cc1Cl (stereo not drawn) = -0.712 (inactive)
C[C@@]1([C@@H](NC(=O)c2ccccc2)c2ccc(-c3ccccc3)cc2)C[C@H]1C1CCCCC1 = -1.17 (inactive)

// returns reported z-score for input CCCCN1CC=CC23O[C@@H]4/C=C\CCC(C)OC(=O)C4[C@H]2C(=O)N(CCCCCO)[C@@H]3C1=O (stereo partly drawn)
0.35 (inactive)

May I ask what z-score has been recorded for `O=C(NCc1ccccc1)[C@@]1(Cc2ccccc2)N=C(c2ccc(OCCCO)cc2)O[C@H]1c1ccccc1` ?
-0.3 (inactive)

Could you tell me which z-score is on file for `CC(C)(C)C(=O)N[C@@H](c1ccc(Cl)cc1)[C@]1(C)C[C@H]1C1CCCCC1` ?
-0.27 (inactive)

What value of z-score has been reported for the following compound? `C=C(COC)/C(=C/C[C@@H](OC(C)=O)c1ccc(CO)o1)c1cnc2ccccc2c1`
-0.0551 (inactive)

So what's the measured z-score for this one? `C=C(CCCC)C(=O)CC[C@H](OC(C)=O)c1cccc(OCCO)c1`
-0.873 (inactive)

For the compound `COC(=O)[C@@]1(Cc2ccc(OC)cc2)[C@H]2c3cc(C(=O)N(C)C)n(CCN4CNCC4=O)c3C[C@H]2CN1C(=O)c1ccccc1` , what z-score is on record?
-0.318 (inactive)

###

# test: E. coli growth modulation, two-sided OD650, primary screen, E. coli filamentation project, strain DRC41, 24 h (AID 1093);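 further: MC1000 strain lacking acrAB efflux and sulA so SOS filamentation is blocked; test concentration not given here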
# test-parameters: OD650, 24 h, higher = more signal, called active from +8 up or from −8 down
Parameter: z-score. Scope: all listed entries.
// no unit string in output, number only

Example cases with answers are listed next.
CC1CC/C=C\[C@H]2OC34C=CCN(Cn5nnc6ccccc65)C(=O)[C@H]3N(C(CO)C(C)C)C(=O)[C@@H]4C2C(=O)O1 (stereo not given in full) = 0.309
COCCOC(=O)N1C(=O)[C@@]2(c3cc(C#CCCO)ccc31)[C@H](C(=O)N1CCN(c3ncccn3)CC1)[C@H]1C(=O)O[C@H](c3ccccc3)[C@H](c3ccccc3)N1[C@@H]2c1ccccc1OCCO = 1.84
CN1C(=O)C2C=CC(C(O)c3ccc(I)cc3)N(N3CCCCC3)C2C1=O (stereo not given) = -1.74
CN(C)CCCNC(=O)[C@@]1(c2ccc([N+](=O)[O-])cc2)CC(=O)N(C2CCCCC2)[C@@H]1c1ccc(CO)cc1 = 0.59

So what does the record say about z-score for `COc1ccc([Si](C)(C)[C@H]2[C@H](CCO)O[C@@]3(C(=O)N(Cc4ccc(N5C(=O)COc6ccccc65)cc4)c4ccccc43)[C@@H]2C)cc1` ?
-0.132

Given CCCCN1CC=CC23O[C@@H]4C=CCOC(=O)[C@@H]4[C@H]2C(=O)N(CCCCCO)[C@@H]3C1=O (stereo not given in full) , state its recorded z-score.
1.34
